- assayTarget: MMP9 (Homo sapiens)
- Sequence (P14780 94-707): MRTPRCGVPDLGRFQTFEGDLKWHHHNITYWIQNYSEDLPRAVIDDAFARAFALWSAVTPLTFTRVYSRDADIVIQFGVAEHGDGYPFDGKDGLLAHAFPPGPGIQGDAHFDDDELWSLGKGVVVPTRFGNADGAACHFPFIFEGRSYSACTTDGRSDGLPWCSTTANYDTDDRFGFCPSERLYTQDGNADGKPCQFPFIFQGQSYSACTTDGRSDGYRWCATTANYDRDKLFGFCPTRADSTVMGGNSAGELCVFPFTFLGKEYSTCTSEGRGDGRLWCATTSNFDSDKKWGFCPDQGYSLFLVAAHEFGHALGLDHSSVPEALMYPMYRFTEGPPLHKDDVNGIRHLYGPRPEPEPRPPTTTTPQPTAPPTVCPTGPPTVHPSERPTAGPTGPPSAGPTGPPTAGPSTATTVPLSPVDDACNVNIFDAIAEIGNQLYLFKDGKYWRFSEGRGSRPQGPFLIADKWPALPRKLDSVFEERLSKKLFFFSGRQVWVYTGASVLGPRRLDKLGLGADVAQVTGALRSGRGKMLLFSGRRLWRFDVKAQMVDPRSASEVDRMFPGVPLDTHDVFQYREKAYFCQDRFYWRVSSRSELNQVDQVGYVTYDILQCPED
- experimentalDetails: MMP-9 colorimetric inhibition assay (Enzo kit BML-AK410)
- Assay type: biochemical
measureName: IC50

Please look up its IC50: COCCOC(=O)N1[C@@H]2CC[C@H]1[C@H](C(=O)NO)N(S(=O)(=O)c1ccc(OC3CCC(OC)CC3)nc1)C2 (stereo partly shown)
< 0.05 µM

What value of measured IC50 is listed for COCCOC(=O)N1[C@@H]2CC[C@H]1[C@H](C(=O)NO)N(S(=O)(=O)N1CCC(Oc3ccc(Cl)cc3)C1)C2 (stereo partly shown) ?
0.05 to 1 µM

Given the compound COCCOC(=O)N1[C@@H]2CC[C@H]1[C@H](C(=O)NO)N(S(=O)(=O)N1CCC(Oc3ccc(F)cc3)C1)C2 (stereo partly shown) , what is its reported IC50?
1 to 10 µM

Can you share its IC50? I mean this compound: "O=C(NO)[C@H]1[C@@H]2CC[C@H](CN1S(=O)(=O)c1ccc(Oc3ccc(OCC(F)(F)F)cc3)nc1)N2C(=O)N1CCOCC1"
< 0.05 µM

====

What IC50 was measured for each of the following?
- assayTarget: MMP1 (Homo sapiens)
- experimentalDetails: MMP-1 colorimetric inhibition assay (Enzo kit BML-AK404)
- Type: biochemical
- protocolConditions: thiopeptide substrate, absorbance 415 nm; read-out: MMP 1 IC50 class

Name the reported IC50 value associated with the molecule "CC(=O)N1[C@@H]2CC[C@H]1[C@H](C(=O)NO)N(S(=O)(=O)c1ccc(Oc3ccc(OC(F)(F)F)cc3)nc1)C2"
1 to 10 µM

Endpoint output: IC50 of "COc1ccc(Oc2ccc(S(=O)(=O)N3C[C@H]4CC[C@@H]([C@@H]3C(=O)NO)N4C(=O)N3CCOCC3)cn2)cc1F" . Value?
> 10 µM

Consider the molecule "COCCOC(=O)N1[C@@H]2CC[C@H]1[C@H](C(=O)NO)N(S(=O)(=O)c1ccc(Oc3ccc(OC(F)F)cc3)nc1)C2" and give its measured IC50.
1 to 10 µM

====

- assayTarget: MMP1 (Homo sapiens, UniProt P03956)
- Sequence (P03956 100-269 limits assumed): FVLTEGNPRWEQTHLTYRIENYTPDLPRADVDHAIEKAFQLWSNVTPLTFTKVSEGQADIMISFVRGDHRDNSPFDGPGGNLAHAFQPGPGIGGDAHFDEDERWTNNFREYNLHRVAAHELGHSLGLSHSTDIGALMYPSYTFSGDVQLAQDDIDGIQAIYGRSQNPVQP
- experimentalDetails: MMP-1 colorimetric inhibition assay (Enzo kit BML-AK404)
- Type: biochemical
- protocolConditions: thiopeptide substrate, absorbance 415 nm; read-out: MMP 1 IC50 class
- Procedure: The inhibitory activities of the compounds of the invention were assessed in 96-well microplate format using MMP1, MMP2, MMP9 and MMP13 colorimetric assay kits and TACE fluorometric assay kit from Enzo Life Sciences, Inc. The inhibitory effect of the compounds of the invention on ADAM10 activity were evaluated in 96-well microplate format using fluorometric assay from AnaSpec, Inc. […]
pIC50: −log10 of the molar value.
measureName: pIC50

Which pIC50 value belongs to "COCCOC(=O)N1[C@@H]2CC[C@H]1[C@H](C(=O)NO)N(S(=O)(=O)N1CCC(Oc3ccc(F)cc3)CC1)C2" ?
6.00 to 7.30

Request the reported pIC50 associated with "COCCOC(=O)N1[C@@H]2CC[C@H]1[C@H](C(=O)NO)N(S(=O)(=O)c1ccc(Oc3cnn(C)c3)nc1)C2"
> 7.30

# input compound: "CC(C)Oc1ccc(Oc2ccc(S(=O)(=O)N3C[C@H]4CC[C@@H]([C@@H]3C(=O)NO)N4C(=O)C(C)C)cn2)cc1" ; wanted: its pIC50
5.00 to 6.00

Which pIC50 is reported for this compound? "COCCOC(=O)N1[C@@H]2CC[C@H]1[C@H](C(=O)NO)N(S(=O)(=O)c1cc(F)c(Oc3cnn(C)c3)c(F)c1)C2"
5.00 to 6.00

Recorded pIC50 of "COCCOC(=O)N1[C@@H]2CC[C@H]1[C@H](C(=O)NO)N(S(=O)(=O)N1CCC(Oc3ccc(Cl)cc3)CC1)C2" , please.
6.00 to 7.30

Give its pIC50 value. Item: "CC(C)C(=O)N1[C@@H]2CC[C@H]1[C@H](C(=O)NO)N(S(=O)(=O)c1ccc(Oc3ccc(OC(F)(F)F)cc3)nc1)C2"
< 5.00

Can you look up the measured pIC50 of "COCCOC(=O)N1[C@@H]2CC[C@H]1[C@H](C(=O)NO)N(S(=O)(=O)N1CCN(C(=O)c3ccc(Cl)cc3)CC1)C2" for me?
< 5.00

Recorded pIC50 of "COCCOC(=O)N1[C@@H]2CC[C@H]1[C@H](C(=O)NO)N(S(=O)(=O)c1ccc(Oc3cnn(-c4ccccc4)c3)nc1)C2" , please.
6.00 to 7.30

Which pIC50 reading was recorded for the compound "COCCOC(=O)N1[C@@H]2CC[C@H]1[C@H](C(=O)NO)N(S(=O)(=O)c1ccc(Oc3cnn(CC(C)C)c3)nc1)C2" ?
5.00 to 6.00

Name the recorded pIC50 for "CC(=O)N1[C@@H]2CC[C@H]1[C@H](C(=O)NO)N(S(=O)(=O)c1ccc(Oc3ccc(OCC(F)(F)F)cc3)nc1)C2" .
5.00 to 6.00

Reported pIC50, compound "O=C(NO)[C@H]1[C@@H]2CC[C@H](CN1S(=O)(=O)c1ccc(Oc3ccc(OC(F)(F)F)cc3)nc1)N2C(=O)N1CCOCC1" : ____
< 5.00

# input compound: "CC(C)Oc1ccc(Oc2ccc(S(=O)(=O)N3C[C@H]4CC[C@@H]([C@@H]3C(=O)NO)N4C(=O)C(C)(C)C)cn2)cc1" ; wanted: its pIC50
5.00 to 6.00

Item under review: "COCCOC(=O)N1[C@@H]2CC[C@H]1[C@H](C(=O)NO)N(S(=O)(=O)c1ccc(Oc3nc4ccccc4o3)c(F)c1)C2" . Reported pIC50?
< 5.00

From: patent US20250215010A1
